Target: LRRK2 (Homo sapiens (Human), UniProt Q5S007, G2019S)
Sequence (Q5S007 970-2527 G2019S limits assumed): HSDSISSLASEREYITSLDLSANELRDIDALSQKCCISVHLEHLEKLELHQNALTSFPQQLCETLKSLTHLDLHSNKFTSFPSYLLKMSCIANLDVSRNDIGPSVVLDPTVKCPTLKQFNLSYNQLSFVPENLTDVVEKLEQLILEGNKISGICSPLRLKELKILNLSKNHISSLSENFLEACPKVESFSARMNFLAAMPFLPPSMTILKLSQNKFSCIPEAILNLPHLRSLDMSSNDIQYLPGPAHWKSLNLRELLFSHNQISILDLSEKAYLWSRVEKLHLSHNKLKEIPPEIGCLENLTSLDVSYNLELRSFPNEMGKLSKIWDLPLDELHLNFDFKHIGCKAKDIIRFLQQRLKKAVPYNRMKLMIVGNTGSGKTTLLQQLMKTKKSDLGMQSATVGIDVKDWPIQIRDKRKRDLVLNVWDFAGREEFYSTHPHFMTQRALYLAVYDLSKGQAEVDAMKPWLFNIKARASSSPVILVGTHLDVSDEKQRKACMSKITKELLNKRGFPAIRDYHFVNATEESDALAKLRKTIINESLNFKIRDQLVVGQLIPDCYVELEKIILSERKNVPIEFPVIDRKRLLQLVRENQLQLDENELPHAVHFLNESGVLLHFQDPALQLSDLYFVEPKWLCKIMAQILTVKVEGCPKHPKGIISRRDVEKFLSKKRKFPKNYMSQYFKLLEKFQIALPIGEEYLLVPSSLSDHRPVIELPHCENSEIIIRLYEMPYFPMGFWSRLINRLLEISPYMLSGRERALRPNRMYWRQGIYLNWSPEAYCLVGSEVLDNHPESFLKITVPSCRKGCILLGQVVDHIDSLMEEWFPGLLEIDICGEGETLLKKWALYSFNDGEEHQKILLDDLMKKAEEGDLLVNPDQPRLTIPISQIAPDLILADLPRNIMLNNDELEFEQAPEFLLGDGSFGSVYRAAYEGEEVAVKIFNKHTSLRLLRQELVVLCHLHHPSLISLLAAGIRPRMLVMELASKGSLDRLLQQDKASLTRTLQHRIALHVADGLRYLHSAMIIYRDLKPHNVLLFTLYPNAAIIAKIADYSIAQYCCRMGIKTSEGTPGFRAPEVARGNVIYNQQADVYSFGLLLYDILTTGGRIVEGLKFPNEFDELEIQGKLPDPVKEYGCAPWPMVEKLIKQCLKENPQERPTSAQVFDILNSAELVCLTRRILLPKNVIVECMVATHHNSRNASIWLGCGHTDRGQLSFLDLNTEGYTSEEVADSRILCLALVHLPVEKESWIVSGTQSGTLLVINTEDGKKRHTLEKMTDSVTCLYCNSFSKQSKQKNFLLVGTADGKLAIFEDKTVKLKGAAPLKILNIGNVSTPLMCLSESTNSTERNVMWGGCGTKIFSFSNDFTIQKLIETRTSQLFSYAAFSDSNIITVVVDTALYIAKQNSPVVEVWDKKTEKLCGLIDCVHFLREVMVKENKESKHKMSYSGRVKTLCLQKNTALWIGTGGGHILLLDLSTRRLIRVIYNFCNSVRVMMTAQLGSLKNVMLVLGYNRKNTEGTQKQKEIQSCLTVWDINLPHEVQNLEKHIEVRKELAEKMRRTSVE
Assay: In Vitro LRRK2 LabChip Assay
Assay type: biochemical
Details: Table 6
Method: In Vitro LRRK2 LabChip Assay This assay was used to determine a compound's potency in inhibiting activity of LRRK2 by determining, Kiapp, IC50, or percent inhibition values. […] The relative amounts of each were quantitated by fluorescence intensity. LRRK2 Ki was determined according to the equation: Y=V0*(1−((x+Ki*(1+S/Km)+Et)/(2*Et)−(((x+Ki*(1+S/Km)+Et)^2−(4*Et*x))^0.5)/(2*Et))). […] The plate was incubated for 2 hours in the dark. […] Results were read on the LabChip 3000. […]
pKi: −log10 of the molar value.
reported metric: pKi

> print(dat)
                               sample.smiles  reported.measurement
 1  COc1cc(C(=O)N2CCOCC2)ccc1Nc1ncc(C(F)(F)F)c(N2CCCC2)n1                  7.72
 2  CNc1nc(Nc2ccc(C(=O)N(C)CCOC)cc2OC)ncc1C(F)(F)F                  8.29
 3  CNc1nc(Nc2ccc(C(=O)N3CCOCC3)cc2Br)ncc1C(F)(F)F                  8.12
 4  CNc1nc(Nc2ccc(C(=O)N3CCC(C#N)CC3)cc2OC)ncc1C(F)(F)F                  8.77
 5  CNc1nc(Nc2ccc(C(=O)N3CCOCC3)cc2Cl)ncc1C(F)(F)F                  7.77
 6  CNc1nc(Nc2ccc(C(=O)N3CCOCC3)cc2OCCF)ncc1C(F)(F)F                  8.62
 7  CNc1nc(Nc2cc(F)c(C(=O)N3CCC[C@H]3COC)cc2OC)ncc1C(F)(F)F                  8.52
 8  CNc1nc(Nc2ccc(C(=O)N3CCOCC3)cc2OC2CCC2)ncc1C(F)(F)F                  8.60
 9  CNc1nc(Nc2ccc(C(=O)N3CCOCC3)cc2OC2COC2)ncc1Cl                  7.89
10  CCNc1nc(Nc2ccc(C(=O)N3CCOCC3)cc2OC(F)(F)F)ncc1C(F)(F)F                  7.55
11  CNc1nc(Nc2ccc(C(=O)NC3CCC(F)(F)CC3)cc2OC)ncc1C(F)(F)F                  8.96
12  COc1cc(C(=O)N2CCOCC2)c(Cl)cc1Nc1ncc(Br)c(OC)n1                  8.03
13  CNc1nc(Nc2cc(OC)c(C(=O)NC3(C#N)CC3)cc2Cl)ncc1C(F)(F)F                  8.38
14  CNc1nc(Nc2ccc(C(=O)N3CCOCC3)cc2C2CC2)ncc1C(F)(F)F                  7.70
15  CNc1nc(Nc2ccc(C(=O)NC3CCN(C)CC3)cc2OC)ncc1C(F)(F)F                  9.22
16  CNc1nc(Nc2cc(F)c(C(=O)N(C)CCOC)cc2OC)ncc1C(F)(F)F                  8.23
17  CNc1nc(Nc2cc(Cl)c(C(=O)N3CCOCC3)cc2OC)ncc1Cl                  8.57

* * *

Molecular target: LRRK2 (Homo sapiens (Human), UniProt Q5S007, G2019S)
Assay: In Vitro LRRK2 LabChip Assay
Assay type: biochemical
Details: Table 4
Method: In Vitro LRRK2 LabChip Assay This assay was used to determine a compound's potency in inhibiting activity of LRRK2 by determining, Kiapp, IC50, or percent inhibition values. […] The relative amounts of each were quantitated by fluorescence intensity. LRRK2 Ki was determined according to the equation: Y=V0*(1−((x+Ki*(1+S/Km)+Et)/(2*Et)−(((x+Ki*(1+S/Km)+Et)^2−(4*Et*x))^0.5)/(2*Et))). […] The plate was incubated for 2 hours in the dark. […] Results were read on the LabChip 3000. […]
pKi: −log10 of the molar value.
reported metric: pKi

> print(dat)
                                    molecule  reported.metric  reported.measurement
 1  CNc1nc(Nc2ccc(C(=O)N3CCC(C#N)CC3)cc2OC)ncc1Br              pKi                  8.39
 2  CNc1nc(Nc2ccc(C(=O)N3CCN(C4CCC4)CC3)cc2OC)ncc1Br              pKi                  8.64
 3  CNc1nc(Nc2ccc(C(=O)N3CCC(OC)CC3)cc2OC)ncc1Br              pKi                  8.62
 4  CCNc1nc(Nc2cc(OC)c(C(=O)N3CCOCC3)cc2Cl)ncc1C(F)(F)F              pKi                  8.47
 5  CNc1nc(Nc2ccc(C(=O)N3CCOCC3)cc2OC(C)C)ncc1Cl              pKi                  7.81
 6  CNc1nc(Nc2cc(OC)c(C(=O)N3CCCC3)cc2Cl)ncc1Cl              pKi                  8.13
 7  CNc1nc(Nc2ccc(C(=O)N3CCOCC3CO)cc2OC)ncc1Cl (stereo not drawn)              pKi                  8.36
 8   CNc1nc(Nc2ccc(C(=O)NC(C)C)cc2OC)ncc1C#N              pKi                  8.36
 9  COc1cc(C(=O)N2CCOCC2)ccc1Nc1ncc(Cl)c(NCCS(C)(=O)=O)n1              pKi                  7.58
10  CCOc1cc(C(=O)N2CCOCC2)ccc1Nc1ncc(C(F)(F)F)c(NC)n1              pKi                  8.38
11  CNc1nc(Nc2cc(OC)c(C(=O)NCCO)cc2Cl)ncc1Cl              pKi                  7.96
12  CNc1nc(Nc2cc(OC)c(CC(=O)N3CCOCC3)cc2OC)ncc1Cl              pKi                  8.06
13  COCCOc1nc(Nc2ccc(C(=O)N3CCOCC3)cc2OC)ncc1Br              pKi                  8.24
14  CNc1nc(Nc2ccc(C(=O)N3CC(C)CC(C)C3)cc2OC)ncc1Cl (stereo not drawn)              pKi                  8.21
15  CNc1nc(Nc2cc(OC)c(C(=O)N3CCC(F)(F)CC3)cc2Cl)ncc1Cl              pKi                  8.11
16  COc1cc(C(=O)N2CCOCC2)ccc1Nc1ncc(Cl)c(NCC2CC2)n1              pKi                  8.57
17  CNc1nc(Nc2ccc(C(=O)NC3CC(F)(F)C3)cc2OC)ncc1C#N              pKi                  8.19
18  CNc1nc(Nc2cc(OC)c(C(=O)NC3(C#N)CC3)cc2Cl)ncc1Cl              pKi                  7.86

* * *

Molecular target: LRRK2 (Homo sapiens (Human), UniProt Q5S007, G2019S)
Assay: In Vitro LRRK2 LabChip Assay
Format: biochemical
Settings: Table 4
Description: In Vitro LRRK2 LabChip Assay This assay was used to determine a compound's potency in inhibiting activity of LRRK2 by determining, Kiapp, IC50, or percent inhibition values. […] The relative amounts of each were quantitated by fluorescence intensity. LRRK2 Ki was determined according to the equation: Y=V0*(1−((x+Ki*(1+S/Km)+Et)/(2*Et)−(((x+Ki*(1+S/Km)+Et)^2−(4*Et*x))^0.5)/(2*Et))). […] The plate was incubated for 2 hours in the dark. […] Results were read on the LabChip 3000. […]
reported metric: Ki (nM)

> print(dat)
                              sample.smiles  measurement.units  reported.measurement
1  CCNc1nc(Nc2ccc(C(=O)N3C[C@@H]4C[C@H]3CO4)c(F)c2OC)ncc1C(F)(F)F                 nM                   2.8
2  CNC(=O)c1cc(Cl)c(Nc2ncc(Cl)c(NC)n2)cc1OC                 nM                  11.3
3    CNc1nc(Nc2ccc(C(=O)N3CCC3)cc2OC)ncc1Cl                 nM                   5.2
4         CNc1nc(Nc2ccc(C(N)=O)cc2OC)ncc1Cl                 nM                   5.1
5  CNc1nc(Nc2cc(OC)c(C(=O)N3CC(O)C3)cc2Cl)ncc1Cl                 nM                   5.4
6  CNc1nc(Nc2ccc(CC(=O)N3CCOCC3)cc2OC)ncc1C(F)(F)F                 nM                   5.2
7  CNc1nc(Nc2cc(OC)c(C(=O)N3CCNCC3)cc2Cl)ncc1C(F)(F)F                 nM                   4.1
8  CNc1nc(Nc2ccc(C(=O)NC(C)(C)C)cc2OC)ncc1C#N                 nM                   4.6
9  CNc1nc(Nc2cc(OC)c(C(=O)N3CCC(O)CC3)cc2Cl)ncc1Cl                 nM                   3.6
